Test system: Rattenlebermikrosomen
Experiment: Inhibition of microsomal lipid peroxidation (malondialdehyde/thiobarbituric acid)
Assay type: biochemical, Ratte
Settings: rat liver microsomes, FeSO₄ start, 10 min 37°C; read-out: IC50 Mikrosomale Lipidperoxidation
pIC50: −log10 of the molar value.

# compound, pIC50
measured = [
    ("CCOP(=O)(OCC)C(c1cc(C(C)(C)C)c(O)c(C(C)(C)C)c1)N(C)c1ccc(Cl)cc1 (stereo not shown) [Beispiel 54]", 5.55),
    ("C=CCOP(=O)(OCC=C)C(Nc1ccc(Cl)cc1)c1cc(C(C)(C)C)c(O)c(C(C)(C)C)c1 (stereo not shown) [Beispiel 46]", 6.07),
    ("CCOP(=O)(OCC)C(c1cc(C(C)(C)C)c(O)c(C(C)(C)C)c1)N1CCOCC1 (stereo not shown) [Beispiel 23]", 5.61),
    ("CCCOP(=O)(OCCC)C(Nc1ccc(Cl)cc1)c1cc(C(C)(C)C)c(O)c(C(C)(C)C)c1 (stereo not shown) [Beispiel 44]", 5.98),
    ("CCOP(=O)(OCC)C(Nc1ccc(Cl)c(Cl)c1)c1cc(C(C)(C)C)c(O)c(C(C)(C)C)c1 (stereo not shown) [Beispiel 48]", 5.53),
    ("COP(=O)(OC)C(NC1CCCCC1)c1cc(C(C)(C)C)c(O)c(C(C)(C)C)c1 (stereo not shown) [Beispiel 7]", 5.62),
    ("CC(C)(C)c1cc(C(Nc2ccc(Cl)cc2)[PH](=O)O)cc(C(C)(C)C)c1O (stereo not shown) [Beispiel 40]", 6.31),
    ("CCCN(CCC)C(c1cc(C(C)(C)C)c(O)c(C(C)(C)C)c1)P(=O)(OCC)OCC (stereo not shown) [Beispiel 21]", 5.20),
    ("CCOP(=O)(OCC)C(c1cc(C(C)(C)C)c(O)c(C(C)(C)C)c1)N(C)c1ccccc1 (stereo not shown) [Beispiel 53]", 5.69),
    ("CCOP(=O)(OCC)C(c1cc(C(C)(C)C)c(O)c(C(C)(C)C)c1)N1CCN(c2ccccc2)CC1 (stereo not shown) [Beispiel 25]", 5.61),
    ("COP(=O)(OC)C(NCc1ccc2c(c1)OCO2)c1cc(C(C)(C)C)c(O)c(C(C)(C)C)c1 (stereo not shown) [Beispiel 29]", 6.16),
    ("CCOP(=O)(OCC)C(Nc1ccc(NC(=N)N)cc1)c1cc(C(C)(C)C)c(O)c(C(C)(C)C)c1 (stereo not shown) [Beispiel 73]", 6.17),
    ("CC(C)(C)c1cc(C(Nc2ccc3c(c2)OCO3)[PH](=O)O)cc(C(C)(C)C)c1O (stereo not shown) [Beispiel 3]", 6.10),
]

====

# Lookup of reported inhibition at 10 µM keyed by entry
Tested on: TNF-alpha
Experiment: LPS-stimulated interleukin release from human mononuclear cells, ELISA (TNF-alpha)
Type: cell-based
Settings: 10 µmol/l, 20-22 h, read-out: % Hemmung der Interleukin-Freisetzung
reported endpoint: inhibition at 10 µM (%)

# molecule, endpoint value
records = [
    ("CCOP(=O)(OCC)C(Nc1ncccn1)c1cc(C(C)(C)C)c(O)c(C(C)(C)C)c1 (centres unmarked)", 21),
    ("CCOP(=O)(OCC)C(c1cc(C(C)(C)C)c(O)c(C(C)(C)C)c1)N1CCN(c2ccccc2)CC1 (centres unmarked)", 36),
    ("CCOP(=O)(OCC)C(c1cc(C(C)(C)C)c(O)c(C(C)(C)C)c1)N1CCCCC1 (centres unmarked)", 86),
    ("CCOP(=O)(OCC)C(c1cc(C(C)(C)C)c(O)c(C(C)(C)C)c1)N1CCOCC1 (centres unmarked)", 70),
    ("COP(=O)(OC)C(Nc1ccc2c(c1)OCO2)c1cc(C(C)(C)C)c(O)c(C(C)(C)C)c1 (centres unmarked)", 24),
]

====

System: Chondrozyten
Test: IL-1-induced chondrocytic chondrolysis in chondrocyte agarose culture, 35S-sulfate incorporation
Settings: agarose cell culture with 5 u/ml human rec. IL-1 alpha; factor relative to IL-1 treated control
reported endpoint: Stimulationsfaktor der Proteoglykansynthese

# compound, endpoint value
rows = [
    ("CCOP(=O)(OCC)C(Nc1ccc(F)cc1)c1cc(C(C)(C)C)c(O)c(C(C)(C)C)c1 (stereo not shown)", "1,3"),
    ("CC(C)(C)c1cc(C(Nc2ccc(Cl)cc2)P(=O)(Oc2ccccc2)Oc2ccccc2)cc(C(C)(C)C)c1O (stereo not shown)", "1,8"),
    ("CCOP(=O)(OCC)C(Nc1ncccn1)c1cc(C(C)(C)C)c(O)c(C(C)(C)C)c1 (stereo not shown)", "2,4"),
    ("CC(C)(C)c1cc(C(Nc2ccc(Cl)cc2)[PH](=O)O)cc(C(C)(C)C)c1O (stereo not shown)", "2,1"),
]

====

Tested on: Chondrozyten
Assay: IL-1-induced chondrocytic chondrolysis in chondrocyte agarose culture, 35S-sulfate incorporation
Settings: agarose cell culture with 5 u/ml human rec. IL-1 alpha; factor relative to IL-1 treated control
# Lookup of reported Stimulationsfaktor der Proteoglykansynthese keyed by entry
reported endpoint: Stimulationsfaktor der Proteoglykansynthese

# molecule, tested system, endpoint value
measured = [
    ("CC(C)(C)c1cc(C(Nc2ccccc2)[PH](=O)O)cc(C(C)(C)C)c1O (centres unmarked)", "Chondrozyten", "2,5"),
    ("CCCCOP(=O)(OCCCC)C(Nc1ccc(Cl)c(Cl)c1)c1cc(C(C)(C)C)c(O)c(C(C)(C)C)c1 (centres unmarked)", "Chondrozyten", "1,5"),
    ("CCOP(=O)(OCC)C(Nc1ccccc1)c1cc(C(C)(C)C)c(O)c(C(C)(C)C)c1 (centres unmarked)", "Chondrozyten", "1,5"),
    ("CCCCNC(c1cc(C(C)(C)C)c(O)c(C(C)(C)C)c1)P(=O)(OCC)OCC (centres unmarked)", "Chondrozyten", "1,4"),
    ("CCOP(=O)(OCC)C(Nc1ccc(OC)cc1)c1cc(C(C)(C)C)c(O)c(C(C)(C)C)c1 (centres unmarked)", "Chondrozyten", "1,4"),
    ("CC(C)(C)c1cc(C(NCc2ccc3c(c2)OCO3)[PH](=O)O)cc(C(C)(C)C)c1O (centres unmarked)", "Chondrozyten", "5,5"),
    ("CCOP(=O)(OCC)C(NCc1ccc(OC)cc1)c1cc(C(C)(C)C)c(O)c(C(C)(C)C)c1 (centres unmarked)", "Chondrozyten", "1,4"),
    ("CCOP(=O)(OCC)C(c1cc(C(C)(C)C)c(O)c(C(C)(C)C)c1)N(C)c1ccc(Cl)cc1 (centres unmarked)", "Chondrozyten", "1,4"),
]

====

System: Rattenlebermikrosomen
Assay: Inhibition of microsomal lipid peroxidation (malondialdehyde/thiobarbituric acid)
Format: biochemical, Ratte
Details: rat liver microsomes, FeSO₄ start, 10 min 37°C; read-out: IC50 Mikrosomale Lipidperoxidation

# compound, IC50 / nM
rows = [
    ("CCCOP(=O)(OCCC)C(NCc1ccc2c(c1)OCO2)c1cc(C(C)(C)C)c(O)c(C(C)(C)C)c1 (stereo not shown)", 2300),
    ("CCOP(=O)(OCC)C(Nc1ccc(S(N)(=O)=O)cc1)c1cc(C(C)(C)C)c(O)c(C(C)(C)C)c1 (stereo not shown)", 2370),
    ("CCOP(=O)(OCC)C(NC1CC(C)(C)NC(C)(C)C1)c1cc(C(C)(C)C)c(O)c(C(C)(C)C)c1 (stereo not shown)", 3180),
    ("CCOP(=O)(OCC)C(Nc1ccc(C=CC(=O)OC)cc1)c1cc(C(C)(C)C)c(O)c(C(C)(C)C)c1 (stereo not shown)", 2220),
    ("CCOP(=O)(OCC)C(Nc1ccccc1Cl)c1cc(C(C)(C)C)c(O)c(C(C)(C)C)c1 (stereo not shown)", 2400),
    ("CCOP(=O)(OCC)C(NC1CCCCC1)c1cc(C(C)(C)C)c(O)c(C(C)(C)C)c1 (stereo not shown)", 730),
    ("CCOP(=O)(OCC)C(Nc1ccc(C(=O)OC)cc1)c1cc(C(C)(C)C)c(O)c(C(C)(C)C)c1 (stereo not shown)", 750),
]

====

# Lookup of reported IC50 keyed by entry
Tested on: Rattenlebermikrosomen
Assay: Inhibition of microsomal lipid peroxidation (malondialdehyde/thiobarbituric acid)
Format: biochemical, Ratte
Conditions: rat liver microsomes, FeSO₄ start, 10 min 37°C; read-out: IC50 Mikrosomale Lipidperoxidation
Protocol: 4. Hemmung der Mikrosomalen Lipidperoxidation […] Alle Schritte werden bei 0°C durchgeführt. Die Leber einer Ratte wird, um alles Hämoglobin zu entfernen, mit 0,9 % NaCl-Lösung gründlich gespült. Die grob zerkleinerte Leber wird dann in 10 mM Tris/HCl pH 7,4; 250 mM Saccharose (10 ml Puffer/g Leber) gepottert. Zunächst wird 5 Minuten bei 600xg zentrifugiert. Der Überstand wird dann 10 min bei 12000xg zentrifugiert und wird mit festem CaCl₂ (117,6 mg/100 ml) auf eine Konzentration von 8 mM eingestellt. […]
reported endpoint: IC50 (nM)

# molecule, endpoint value
data = [
    ("CCOP(=O)(OCC)C(NCc1ccc(N)cc1)c1cc(C(C)(C)C)c(O)c(C(C)(C)C)c1 (stereo not shown)", 700),
    ("CCCOP(=O)(OCCC)C(Nc1ccc2c(c1)OCO2)c1cc(C(C)(C)C)c(O)c(C(C)(C)C)c1 (stereo not shown)", 240),
    ("CCCCOP(=O)(OCCCC)C(Nc1ccc(Cl)cc1)c1cc(C(C)(C)C)c(O)c(C(C)(C)C)c1 (stereo not shown)", 6150),
    ("CCCOP(=O)(OCCC)C(NC1CCCCC1)c1cc(C(C)(C)C)c(O)c(C(C)(C)C)c1 (stereo not shown)", 2100),
]
